- Tested on: HL-60(TB) leukemia
- ASSAY_TEXT: NCI tumour cell line growth inhibition, 48 h; in the data active means GI50 below about 0.43 µM; inactive means the rest
Valid outcomes are listed here; reply with one: true (active), false (inactive)

Sample answers from the record:
OCCN1CCN(CCCN2c3ccccc3Sc3ccc(Cl)cc32)CC1 ... false
CCC(C)[C@H]1O[C@]2(CC[C@@H]1C)C[C@@H]1C[C@@H](C/C=C(\C)[C@@H](OC3C[C@H](OC)C(O[C@H]4C[C@H](OC)[C@@H](O)[C@H](C)O4)[C@H](C)O3)[C@@H](C)/C=C/C=C3\CO[C@@H]4[C@H](O)C(C)=C[C@@H](C(=O)O1)[C@]34O)O2 (stereo partly drawn) ... false

What outcome does the record of this test show for `CCOC(=O)c1cc(C(=O)c2cc(OC)c(OC)c(OC)c2)n2ncccc12` ?
true

What outcome does the record of this test show for `Cc1cc2nc3c4cc(O)ccc4n(CCN(C)C)c3nc2cc1C` ?
true

What outcome does the record of this test show for CCN1C(=S)N(c2ccccc2)C2NC(=S)N(/N=C/C=C/c3ccccc3OC)C21 (stereo not drawn) ?
true

What outcome does the record of this test show for `O=c1c2c(=NCCN3CCCC3)cc3c(=O)n(CCCN4CCOCC4)c(=O)c4c(-c5ccc(CN6CCCC6)cc5)cc(c(O)n1CCCN1CCOCC1)c2c4-3` ?
true

What outcome does the record of this test show for `CC(=O)Nc1ccc2c(c1)C(c1ccccc1Cl)=Nc1c(n[nH]c1C)N2` ?
false

What outcome does the record of this test show for `CCN(Cc1ccc(C)cc1)c1ccc(CO)c(Cl)c1` ?
false

---

- Tested on: SF-295 CNS
- ASSAY_TEXT: NCI tumour cell line growth inhibition, 48 h
QUANTITY: TGI

CCOC(=O)c1c(N)n(-c2ccccc2)c(=O)n(-c2ccccc2)c1=O ... > 100 µM
COC(=O)/C=C1\C(=O)N(C(C)=O)c2ccc(Br)cc21 ... 31.6 µM
CC[C@H](C)[C@H]1NC(=O)[C@@H](NC(=O)[C@@H](CC(C)C)N(C)C(=O)C2CCCN2C(=O)[C@H](C)O)[C@@H](C)OC(=O)[C@H](Cc2ccc(OC)cc2)N(C)C(=O)[C@@H]2CCCN2C(=O)[C@H](CCCCNC(=O)OCc2ccccc2)NC(=O)[C@H](C)C(=O)[C@H](C(C)C)OC(=O)C[C@@H]1O (some centres not stated) ... > 25 µM

Answer with TGI of O=C1NC(Cc2ccc(O)cc2)C(=O)N2CCCC12 (configuration not stated) measured for SF-295 CNS.
> 100 µM

Answer with TGI of `COc1ccc(/C=C(/C#N)C(N)=O)c(OC)c1` measured for SF-295 CNS.
> 100 µM

Answer with TGI of Nc1ncnc2c1ncn2[C@]1(CO)C=C(CO)C(O)C1O (some centres not stated) measured for SF-295 CNS.
> 100 µM

Answer with TGI of `O=P12N(CCN1c1ccccc1)CCN2c1ccccc1` measured for SF-295 CNS.
> 100 µM

Answer with TGI of `c1ccc2c(Cc3[nH]c4ccccc4c3Cc3c[nH]c4ccccc34)c[nH]c2c1` measured for SF-295 CNS.
16.3 µM

Answer with TGI of COC(=O)C(N)CCCC(N)C(=O)NC(C)C(=O)NC(CCC(=O)NCCNCCNc1c2ccccc2nc2cccc([N+](=O)[O-])c12)C(N)=O (configuration not stated) measured for SF-295 CNS.
> 100 µM

Answer with TGI of `O=c1[nH]c2nnc(COc3ccc(Cl)cc3Cl)n2nc1Cc1ccccc1` measured for SF-295 CNS.
> 100 µM

Answer with TGI of `Cn1cc(C(=O)c2ccccc2)c2ccccc2c1=O` measured for SF-295 CNS.
> 100 µM

Answer with TGI of CC(C)(O)[C@@H]1CC[C@@]2(C)CCCC(O)C2(O)C1 (some centres not stated) measured for SF-295 CNS.
> 100 µM

Answer with TGI of `O=Nc1ccc(O)c(=O)cc1` measured for SF-295 CNS.
79.2 µM

Answer with TGI of `O=c1c2c(=NCCN3CCCC3)cc3c(=O)n(CCCN4CCOCC4)c(=O)c4c(-c5ccc(CN6CCCC6)cc5)cc(c(O)n1CCCN1CCOCC1)c2c4-3` measured for SF-295 CNS.
0.796 µM

Answer with TGI of COC(=O)CCC(NC(=S)N/N=C(\C)c1cnc2ccccc2n1)C(=O)OC (configuration not stated) measured for SF-295 CNS.
> 100 µM

---

TGI overview
- Tested on: NCI-H460 lung
- ASSAY_TEXT: NCI tumour cell line growth inhibition, 48 h

Some solved cases for reference:
COc1ccc(/C=C/C(=O)c2cc(OC)c(OC)c(OC)c2)cc1OCC(=O)Nc1nc2ccc(OC(F)(F)F)cc2s1 ... 6.25 µM
C/C(=C1/N=C(c2cc([N+](=O)[O-])ccc2Cl)N(c2cccc(C)c2)C1=O)c1cc2ccccc2oc1=O ... > 100 µM
CN(C)CCCc1cccc2[nH]c3c(c12)CN(C)CC3 ... > 100 µM
Cc1nc2ccc(Nc3nc(Cl)nc(N4CCOCC4)n3)cc2n1Cc1ccccc1 ... > 100 µM
O=c1[nH]c(Cc2ccccc2)nc2c1sc1nc3ccccc3n12 ... > 100 µM

Give me measured TGI, please, for this compound: `NS(=O)(=O)c1ccc(Nc2cc(-c3cccc(O)c3)[nH]n2)cc1`
> 25 µM

Give me measured TGI, please, for this compound: `CC(C)=CCC[C@@H](C)/C=C/C=C(\C)C(=O)CC[C@@H]1CC[N@+]2(C)CCCC[C@H]12`
> 100 µM

Give me measured TGI, please, for this compound: CC(NC(=O)/C(=C/c1ccccc1)NC(=O)c1ccccc1)C(=O)O (centres undefined)
> 100 µM

Give me measured TGI, please, for this compound: O=C(c1ccccc1)c1c(CC(O)c2ccccn2)n(C(=O)c2ccccc2)c2ccccc12 (centres undefined)
57 µM

---

- Test system: SNB-75 CNS
- ASSAY_TEXT: NCI tumour cell line growth inhibition, 48 h
TGI overview

Some solved cases for reference:
NS(=O)(=O)c1ccc(Nc2cc(-c3cccc(O)c3)[nH]n2)cc1 ... > 25 µM
COc1ccc(N=NC(=O)NC(Cc2ccccc2)C(=O)O)cc1 (centres undefined) ... > 100 µM

Give me measured TGI, please, for this molecule: COc1ccc(C2=C(Cl)c3cc(OC)c(OC)cc3C2OC)cc1OC (centres undefined)
> 100 µM

Give me measured TGI, please, for this molecule: Nc1ncnc2c1ncn2[C@]1(CO)C=C(CO)C(O)C1O (some centres undefined)
> 100 µM

Give me measured TGI, please, for this molecule: C[C@@H](NC1CCCC[C@H]1O)c1ccccc1 (some centres undefined)
> 100 µM

Give me measured TGI, please, for this molecule: `COc1ccc(C/C(=N/O)C(=O)NCCc2cc(Br)c(OCCCN(C)C)c(Br)c2)cc1Br`
55 µM

Give me measured TGI, please, for this molecule: `CC(=O)O[C@H]1C(=O)[C@@]2(C)[C@H]([C@H](OC(=O)c3cccc([N+](=O)[O-])c3)[C@]3(O)C[C@H](OC(=O)[C@H](O)[C@@H](NC(=O)c4ccccc4)c4ccccc4)C(C)=C1C3(C)C)[C@]1(OC(C)=O)CO[C@@H]1C[C@@H]2O`
0.295 µM

Give me measured TGI, please, for this molecule: `CC(=O)C(=[N+]=[N-])C(=O)N1CCOC1=O`
> 10 µM

Give me measured TGI, please, for this molecule: `O=C(O)c1ccc(C(=O)c2ccccc2C(=O)O)cc1C(=O)O`
> 100 µM

---

- System: HOP-62 NSCLC
- ASSAY_TEXT: NCI tumour cell line growth inhibition, 48 h
QUANTITY: TGI (µM)
Express your answer in µM, writing the number without its unit.

Some solved cases for reference:
CC(=O)c1ccc2c(c1)c1cc(C(C)=O)ccc1n2CCNC(C)C ... 4.63
O=C(Cc1ccc(/C=C/C(=O)c2ncc[nH]2)cc1)Nc1ccc(F)cc1 ... 12.7
CCC(C)[C@H]1O[C@]2(CC[C@@H]1C)C[C@@H]1C[C@@H](C/C=C(\C)[C@@H](OC3C[C@H](OC)C(O[C@H]4C[C@H](OC)[C@@H](O)[C@H](C)O4)[C@H](C)O3)[C@@H](C)/C=C/C=C3\CO[C@@H]4[C@H](O)C(C)=C[C@@H](C(=O)O1)[C@]34O)O2 (stereo not given in full) ... 4.85

Turning now to a further molecule:
Answer with TGI of Cc1c(Cl)cccc1NC(=O)C(=O)C(C(=O)c1ccccc1-c1ccccc1)C1OC(=O)c2ccccc21 (stereo not given) measured for HOP-62 NSCLC.
35.5

---

- Tested on: MDA-N
- ASSAY_TEXT: NCI tumour cell line growth inhibition, 48 h
QUANTITY: TGI

CC(Nc1ncc2c(n1)-c1ccccc1OC2)C(=O)O (centres undefined) ... > 100 µM
CN(C)c1ccc(C=Nc2ccc(Oc3ccc(Cl)cc3)c(Cl)c2)cc1 ... 52.8 µM
CCOC(=O)C(/C(=N/S(=O)(=O)c1cc(C)c(Cl)cc1[S-])[n+]1ccc(N(C)C)cc1)=C(/O)c1ccc([N+](=O)[O-])cc1 ... > 100 µM
CC(O)(Cc1ccccc1C#N)Cc1ccccc1C#N ... > 100 µM

Give me measured TGI, please, for this compound: `COc1ccccc1NC(=S)NN=C(C)c1cccc(C(C)=NNC(=S)Nc2ccccc2OC)n1`
> 100 µM

Give me measured TGI, please, for this compound: `O=C(CSc1nc2ccc([N+](=O)[O-])cc2s1)c1ccc2ccccc2c1`
> 100 µM

Give me measured TGI, please, for this compound: COc1ccc(N=Nc2c(C)c(C#N)c(=S)n(C3OC(CO)C(O)C(O)C3O)c2-c2ccccc2)cc1 (centres undefined)
> 100 µM

Give me measured TGI, please, for this compound: CC(C)C1C(=O)N(c2c(F)c(F)c(F)c(F)c2F)C(=S)N1CCS(=O)c1ccccc1 (centres undefined)
32.4 µM

Give me measured TGI, please, for this compound: `Cc1c(N2C(=O)/C(=C/c3ccc(Cl)cc3)N=C2c2ccccc2)c(=O)n(-c2ccccc2)n1C`
71.6 µM
